Value source: patent US7119189B2

Molecular target: UniProt Q9Z0U4
pIC50: −log10 of the molar value.
ATTRIBUTE MEASURED: pIC50

> print(dat)
      structure.notation  measurement.target  result.value
1  CCOC(OCC)P(=O)(O)CCCN      UniProt Q9Z0U4          5.03

----------
Target: recombinant GABABR1a receptors in membranes from COS 1 cells (Rattus norvegicus)
Construct: The protein expressed from the 4,376 bp cDNA clone has an apparent molecular mass of about 120 kDa; expressed in transfected cells; host or cells: COS1 cells, transient transfection with the cDNA clone in pcDNAI
Sequence (Q9Z0U4 20-960): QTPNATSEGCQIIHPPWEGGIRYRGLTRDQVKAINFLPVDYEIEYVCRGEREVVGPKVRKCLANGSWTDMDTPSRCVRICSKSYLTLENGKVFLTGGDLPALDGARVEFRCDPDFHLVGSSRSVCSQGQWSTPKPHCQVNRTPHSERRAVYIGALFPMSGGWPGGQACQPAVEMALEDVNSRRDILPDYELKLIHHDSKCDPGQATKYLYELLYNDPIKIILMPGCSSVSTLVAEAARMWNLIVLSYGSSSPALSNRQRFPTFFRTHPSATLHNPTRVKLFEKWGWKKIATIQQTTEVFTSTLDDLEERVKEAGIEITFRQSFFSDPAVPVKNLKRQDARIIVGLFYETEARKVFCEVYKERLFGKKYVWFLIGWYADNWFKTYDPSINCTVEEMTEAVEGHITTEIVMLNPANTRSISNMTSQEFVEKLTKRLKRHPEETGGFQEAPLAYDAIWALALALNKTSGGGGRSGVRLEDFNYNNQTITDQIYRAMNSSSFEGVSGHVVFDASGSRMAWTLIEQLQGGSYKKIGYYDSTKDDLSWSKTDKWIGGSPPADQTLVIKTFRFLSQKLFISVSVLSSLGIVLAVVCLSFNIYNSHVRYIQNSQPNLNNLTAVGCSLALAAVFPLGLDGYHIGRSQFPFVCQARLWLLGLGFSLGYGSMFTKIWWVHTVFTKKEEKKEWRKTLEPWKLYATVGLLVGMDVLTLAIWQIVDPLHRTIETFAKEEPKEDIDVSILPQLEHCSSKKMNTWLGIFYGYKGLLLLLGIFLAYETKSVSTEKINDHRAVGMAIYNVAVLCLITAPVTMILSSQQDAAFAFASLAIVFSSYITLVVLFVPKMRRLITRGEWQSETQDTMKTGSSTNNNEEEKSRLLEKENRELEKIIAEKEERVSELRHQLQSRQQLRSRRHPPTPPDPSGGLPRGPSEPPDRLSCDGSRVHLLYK
Experiment: biochemical
Format: binding
ATTRIBUTE MEASURED: IC50 (µM)

> print(dat)
      structure.notation  attribute.measured  units.label  result.value
1  CCOC(OCC)P(=O)(O)CCCN                IC50           µM            20
